# assay-details: UV absorption properties (λmax, molar extinction coefficient ε, efficiency E 1%, 1 cm)
# Assay type: physicochemical
# experimental-context: Table 3, compounds from isocyanates or isothiocyanates
I'd appreciate it if you could supply λmax values for the items below.
Record the result as a number with its unit.

compound="CN(C(=O)C1=CN(C(C)(C)C)CCC1(C)C)c1ccccc1 [drawing 58]" readout_type=λmax result="312 nm"

Give measured λmax for every item shown.
1. CCCCNC(=O)C1=CN(C(C)(C)C)CCC1(C)C [drawing 61]
2. CC1(C)CCN(C(C)(C)C)C=C1C(=O)Nc1ccccc1 [drawing 57]
3. CC1(C)CCN(C(C)(C)C)C=C1C(=O)Nc1ccc(NC(=O)C2=CN(C(C)(C)C)CCC2(C)C)cc1 [drawing 65]
4. Cc1ccc(S(=O)(=O)NC(=O)C2=CN(C(C)(C)C)CCC2(C)C)cc1 [drawing 64]
5. CC1(C)CCN(C(C)(C)C)C=C1C(=O)NCCCCCCNC(=O)C1=CN(C(C)(C)C)CCC1(C)C [drawing 59]

Result ::
1: 288 nm; 2: 308 nm; 3: 322 nm; 4: 304 nm; 5: 289 nm
